Provide the recorded koff−1 for the entries that follow.
System: MR^−/− BMDC
Test: Glyco-PAINT-APP single-molecule glycan binding on live MR-/- BMDC
Parameters: species or system mouse
Conditions: Suppl. Fig 9, glycan SLP, median
Method: Single molecule imaging was performed on a Nikon Ti2 N-STORM system equipped with TIRF module, Z piezo element, perfect focus system for axial drift correction and an OkoLab incubator with temperature and CO2 controller (37 °C and 5% CO2) for live-cell imaging. […] Upon laser excitation, fluorescence was collected by a 100x 1.49 NA oil-immersion objective, passed through a quad-band dichroic mirror (97335 Nikon), and detected by a Hamamatsu ORCA Flash 4.0 CMOS camera with 160 nm pixel size. […]
sCy5 = sulfo-Cy5

// below: answered substances
Ac-Lys(triMan)-Gly-Lys(triMan)-TEG-Asp-Glu-Val-Ser-Gly-Leu-Glu-Gln-Leu-Glu-Ser-Ile-Ile-Asn-Phe-Glu-Lys-Leu-Ala-Ala-Ala-Ala-Ala-Lys(sCy5)-NH2 (DEVSGLEQLESIINFEKLAAAAAK; two Lys(triMan), TEG, sulfo-Cy5, C-amide; printed: Asp-Glu-Val-Ser-Gly-Leu-Glu-Gln-Leu-Glu-Ser-Ile-Ile-Asn-Phe-Glu-Lys-Leu-Ala-Ala-Ala-Ala-Ala-Lys) [2 Tri(5), bivalent trimannosylated OVA SLP with sulfo-Cy5] = 141 ms
Ac-Lys(Man)-Gly-Lys(Man)-TEG-Asp-Glu-Val-Ser-Gly-Leu-Glu-Gln-Leu-Glu-Ser-Ile-Ile-Asn-Phe-Glu-Lys-Leu-Ala-Ala-Ala-Ala-Ala-Lys(sCy5)-NH2 ({Ac-K(Man)-Gly-K(Man)-TEG}-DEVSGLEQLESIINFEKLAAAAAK(sCy5)-NH2) [2 Mono(2), bivalent monomannosylated OVA SLP with sulfo-Cy5] = 151 ms
Ac-Lys(Man)-TEG-Asp-Glu-Val-Ser-Gly-Leu-Glu-Gln-Leu-Glu-Ser-Ile-Ile-Asn-Phe-Glu-Lys-Leu-Ala-Ala-Ala-Ala-Ala-Lys(sCy5)-NH2 ({Ac-K(Man)-TEG}-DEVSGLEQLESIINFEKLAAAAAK(sCy5)-NH2) [1 Mono(1), monovalent monomannosylated OVA SLP with sulfo-Cy5] = 182 ms

Query :: GET /values?readout=koff−1&item= Ac-Lys(triMan)-TEG-Asp-Glu-Val-Ser-Gly-Leu-Glu-Gln-Leu-Glu-Ser-Ile-Ile-Asn-Phe-Glu-Lys-Leu-Ala-Ala-Ala-Ala-Ala-Lys(sCy5)-NH2 (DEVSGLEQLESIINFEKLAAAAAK; Ac-Lys(triMan)-TEG, sulfo-Cy5, C-amide; printed: Asp-Glu-Val-Ser-Gly-Leu-Glu-Gln-Leu-Glu-Ser-Ile-Ile-Asn-Phe-Glu-Lys-Leu-Ala-Ala-Ala-Ala-Ala-Lys) [1 Tri(4), monovalent trimannosylated OVA SLP with sulfo-Cy5]
Result :: 160 ms

###

Target: mannose receptor (MR) on CHO-MR cells (Mus musculus, UniProt Q61830)
Construct: expressed in transfected cells; host or cells: CHO (CHO-MR overexpression line, gift of Luisa Martinez-Pomares)
Sequence (Q61830 20-1456): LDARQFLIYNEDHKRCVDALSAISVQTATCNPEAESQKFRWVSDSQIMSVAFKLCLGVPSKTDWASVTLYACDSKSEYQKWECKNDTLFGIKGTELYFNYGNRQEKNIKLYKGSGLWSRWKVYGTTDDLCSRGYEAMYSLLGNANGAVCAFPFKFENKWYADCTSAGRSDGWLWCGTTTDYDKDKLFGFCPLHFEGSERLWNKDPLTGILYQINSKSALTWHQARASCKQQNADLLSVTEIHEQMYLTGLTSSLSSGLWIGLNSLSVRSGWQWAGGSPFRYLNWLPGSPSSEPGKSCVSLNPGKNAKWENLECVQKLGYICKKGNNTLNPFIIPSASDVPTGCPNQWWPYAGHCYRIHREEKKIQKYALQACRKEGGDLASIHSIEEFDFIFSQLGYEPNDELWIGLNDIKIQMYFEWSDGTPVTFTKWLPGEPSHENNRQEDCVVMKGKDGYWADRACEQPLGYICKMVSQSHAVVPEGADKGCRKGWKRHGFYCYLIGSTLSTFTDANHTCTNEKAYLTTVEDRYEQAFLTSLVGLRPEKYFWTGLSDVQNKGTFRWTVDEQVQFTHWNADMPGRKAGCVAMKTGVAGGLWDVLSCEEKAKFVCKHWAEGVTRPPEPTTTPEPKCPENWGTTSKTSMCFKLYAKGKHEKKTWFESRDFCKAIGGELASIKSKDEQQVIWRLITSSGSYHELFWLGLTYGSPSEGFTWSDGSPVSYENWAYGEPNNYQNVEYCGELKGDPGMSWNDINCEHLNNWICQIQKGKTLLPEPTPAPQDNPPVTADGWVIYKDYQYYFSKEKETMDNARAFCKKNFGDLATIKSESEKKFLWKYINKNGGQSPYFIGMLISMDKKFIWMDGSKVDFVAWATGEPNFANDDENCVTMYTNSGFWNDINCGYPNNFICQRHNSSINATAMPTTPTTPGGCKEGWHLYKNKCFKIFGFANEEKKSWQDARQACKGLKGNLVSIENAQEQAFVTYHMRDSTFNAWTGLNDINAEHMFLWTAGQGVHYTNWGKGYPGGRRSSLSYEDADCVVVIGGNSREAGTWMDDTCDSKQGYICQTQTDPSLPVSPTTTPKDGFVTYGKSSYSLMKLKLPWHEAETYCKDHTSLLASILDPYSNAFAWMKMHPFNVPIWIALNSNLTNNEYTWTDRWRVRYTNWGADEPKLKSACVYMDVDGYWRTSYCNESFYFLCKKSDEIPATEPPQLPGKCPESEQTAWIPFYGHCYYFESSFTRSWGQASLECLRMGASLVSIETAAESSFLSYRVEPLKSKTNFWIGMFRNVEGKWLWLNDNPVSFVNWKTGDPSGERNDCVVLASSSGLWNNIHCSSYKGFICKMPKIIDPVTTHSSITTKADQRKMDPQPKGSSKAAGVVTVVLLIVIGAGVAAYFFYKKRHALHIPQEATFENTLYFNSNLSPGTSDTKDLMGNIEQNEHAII
Assay: Glyco-PAINT-APP single-molecule glycan binding on CHO-MR cells
Settings: Suppl. Fig 9, glycan SLP, CHO-MR + CytD, median
Provide the recorded koff−1 for the entries that follow.
Answers are plain numbers, in ms.

Ac-Lys(triMan)-TEG-Asp-Glu-Val-Ser-Gly-Leu-Glu-Gln-Leu-Glu-Ser-Ile-Ile-Asn-Phe-Glu-Lys-Leu-Ala-Ala-Ala-Ala-Ala-Lys(sCy5)-NH2 (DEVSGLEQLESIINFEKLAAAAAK; Ac-Lys(triMan)-TEG, sulfo-Cy5, C-amide; printed: Asp-Glu-Val-Ser-Gly-Leu-Glu-Gln-Leu-Glu-Ser-Ile-Ile-Asn-Phe-Glu-Lys-Leu-Ala-Ala-Ala-Ala-Ala-Lys) [1 Tri(4), monovalent trimannosylated OVA SLP with sulfo-Cy5] = 144

Pending substance:
Query :: Test system mannose receptor (MR) on CHO-MR cells (Mus musculus, UniProt Q61830); read-out koff−1; what value for Ac-Lys(triMan)-Gly-Lys(triMan)-TEG-Asp-Glu-Val-Ser-Gly-Leu-Glu-Gln-Leu-Glu-Ser-Ile-Ile-Asn-Phe-Glu-Lys-Leu-Ala-Ala-Ala-Ala-Ala-Lys(sCy5)-NH2 (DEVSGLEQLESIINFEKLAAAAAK; two Lys(triMan), TEG, sulfo-Cy5, C-amide; printed: Asp-Glu-Val-Ser-Gly-Leu-Glu-Gln-Leu-Glu-Ser-Ile-Ile-Asn-Phe-Glu-Lys-Leu-Ala-Ala-Ala-Ala-Ala-Lys) [2 Tri(5), bivalent trimannosylated OVA SLP with sulfo-Cy5] ?
Result :: 108
